Overview of recorded LD50 for various compounds
# procedure_text: Toxicity in Mus musculus Kunming (mouse)
# Assay type: organism-based
# applied_conditions: in vivo

# annotated cases, reported LD50 shown
CCCCCCCCCCCCc1c2c(OC)c(OC)ccc2cc2[n+]1CCc1cc3c(cc1-2)OCO3.[Cl-] [8-DODECYL-BERBERINE CHLORIDE] = 752 mg/kg
CCCCCCCCCCCCCCCCCCc1c2c(OC)c(OC)ccc2cc2[n+]1CCc1cc3c(cc1-2)OCO3.[Cl-] [8-OCTADECYL-BERBERINE CHLORIDE] = > 1000 mg/kg
CCCCCCCCCCCCCCCCc1c2c(OC)c(OC)ccc2cc2[n+]1CCc1cc3c(cc1-2)OCO3.[Cl-] [8-HEXADECYL-BERBERINE CHLORIDE] = > 1000 mg/kg
CCCCCCCCc1c2c(OC)c(OC)ccc2cc2[n+]1CCc1cc3c(cc1-2)OCO3.[Cl-] [8-OCTYL-BERBERINE CHLORIDE] = 534 mg/kg
COc1ccc2cc3[n+](cc2c1OC)CCc1cc2c(cc1-3)OCO2.[Cl-] [BERBERINE CHLORIDE] = 764 mg/kg
CC[C@H](C)C(=O)O[C@H]1C[C@@H](C)C=C2C=C[C@H](C)[C@H](CC[C@@H]3C[C@@H](O)CC(=O)O3)[C@H]21 [LOVASTATIN] = > 1000 mg/kg

Now let's try a different one.
Incoming: So what does the record say about LD50 for CCCCCCCCCCCCCCc1c2c(OC)c(OC)ccc2cc2[n+]1CCc1cc3c(cc1-2)OCO3.[Cl-] [8-TETRADECYL-BERBERINE CHLORIDE] ?
Outgoing: 803 mg/kg

###

# study_system: 3-hydroxy-3-methylglutaryl-coenzyme A reductase (Mus musculus) (UniProt Q01237)
# Sequence (whole entry): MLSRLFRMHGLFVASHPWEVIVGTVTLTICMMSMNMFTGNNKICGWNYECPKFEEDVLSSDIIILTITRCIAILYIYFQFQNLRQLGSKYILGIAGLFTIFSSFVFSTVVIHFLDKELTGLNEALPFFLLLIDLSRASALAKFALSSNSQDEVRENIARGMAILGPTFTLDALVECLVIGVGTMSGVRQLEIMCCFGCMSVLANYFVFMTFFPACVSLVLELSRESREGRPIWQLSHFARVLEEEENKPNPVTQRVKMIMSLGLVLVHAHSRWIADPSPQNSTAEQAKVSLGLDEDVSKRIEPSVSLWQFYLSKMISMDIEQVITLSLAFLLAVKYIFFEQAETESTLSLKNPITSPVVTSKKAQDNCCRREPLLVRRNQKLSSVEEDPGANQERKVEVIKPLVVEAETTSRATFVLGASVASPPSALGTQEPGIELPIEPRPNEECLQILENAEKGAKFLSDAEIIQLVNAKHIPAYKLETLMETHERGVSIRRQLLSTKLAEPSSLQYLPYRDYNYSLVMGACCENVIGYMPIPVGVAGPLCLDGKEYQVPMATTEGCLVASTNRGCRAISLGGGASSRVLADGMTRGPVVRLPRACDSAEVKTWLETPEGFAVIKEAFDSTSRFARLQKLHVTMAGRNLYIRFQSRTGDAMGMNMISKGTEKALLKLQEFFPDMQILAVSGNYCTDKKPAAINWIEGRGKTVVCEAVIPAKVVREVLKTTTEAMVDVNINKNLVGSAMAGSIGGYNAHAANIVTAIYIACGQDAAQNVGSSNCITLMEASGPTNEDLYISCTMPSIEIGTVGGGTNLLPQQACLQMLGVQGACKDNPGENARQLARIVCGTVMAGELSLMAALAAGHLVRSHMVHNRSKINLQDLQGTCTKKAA
# procedure_text: Inhibition of HMGR isolated from Mus musculus (mouse) liver assessed as change in NADPH at 8 umol/l by HPLC analysis
# inhibition >= 10% gives fulfilled, anything below gives not fulfilled

Field: example entries. Status: answers known.
CCCCCCCCCCCCCCCCCCc1c2c(OC)c(OC)ccc2cc2[n+]1CCc1cc3c(cc1-2)OCO3.[Cl-] [8-OCTADECYL-BERBERINE CHLORIDE] = fulfilled
CCCCCCCCCCCCc1c2c(OC)c(OC)ccc2cc2[n+]1CCc1cc3c(cc1-2)OCO3.[Cl-] [8-DODECYL-BERBERINE CHLORIDE] = not fulfilled
CCCCCCCCCCCCCCc1c2c(OC)c(OC)ccc2cc2[n+]1CCc1cc3c(cc1-2)OCO3.[Cl-] [8-TETRADECYL-BERBERINE CHLORIDE] = fulfilled
CCCCCCCCCCCCCCCCc1c2c(OC)c(OC)ccc2cc2[n+]1CCc1cc3c(cc1-2)OCO3.[Cl-] [8-HEXADECYL-BERBERINE CHLORIDE] = fulfilled

Incoming: Is inhibition for CC[C@H](C)C(=O)O[C@H]1C[C@@H](C)C=C2C=C[C@H](C)[C@H](CC[C@@H]3C[C@@H](O)CC(=O)O3)[C@H]21 at or above 10%?
Outgoing: fulfilled
